- System: 817829-284-R-J1-PDC complex spheroids, viability;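 further: spheroids exposed to agents for 7 days before readout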
- experiment description: Anticancer human tumor 817829-284-R-J1-PDC patient-derived colon adenocarcinoma cell line growth inhibition [GQUAD]
- assay conditions: curve of first compound; second compound 10 µM
assay endpoint: IC50

# example entries with known answers
Cc1[nH]c2ccccc2c1CCNCc1ccc(/C=C/C(=O)NO)cc1 + Cc1cnc(CNC(=O)c2c(=O)c3ccc(N4CCCN(C)CC4)nc3n3c2sc2ccccc23)cn1 ... < 0.999 nM
COc1cccc2c1C(=O)c1c(O)c3c(c(O)c1C2=O)CC(O)(C(=O)CO)CC3OC1CC(N)C(O)C(C)O1 (configuration not stated) + Cc1[nH]c2ccc(F)cc2c1-c1nc2c3cccnc3c3ncccc3c2[nH]1 ... < 31.6 nM
CC(=O)O[C@H]1C(=O)[C@@]2(C)[C@H]([C@H](OC(=O)c3ccccc3)[C@]3(O)C[C@H](OC(=O)[C@H](O)[C@@H](NC(=O)c4ccccc4)c4ccccc4)C(C)=C1C3(C)C)[C@]1(OC(C)=O)CO[C@@H]1C[C@@H]2O + Cc1cnc(CNC(=O)c2c(=O)c3ccc(N4CCCN(C)CC4)nc3n3c2sc2ccccc23)cn1 ... < 31.6 nM

Task item: Any idea what its IC50 is? The compound is Nc1ccn(C2OC(CO)C(O)C2(F)F)c(=O)n1 (configuration not stated) + Cc1[nH]c2ccc(F)cc2c1-c1nc2c3cccnc3c3ncccc3c2[nH]1
Reply: < 31.6 nM

Task item: Any idea what its IC50 is? The compound is C=CC(=O)N1CCN(c2nc(=O)n(-c3c(C)ccnc3C(C)C)c3nc(-c4c(O)cccc4F)c(F)cc23)C(C)C1 (configuration not stated) + Cc1[nH]c2ccc(F)cc2c1-c1nc2c3cccnc3c3ncccc3c2[nH]1
Reply: < 31.6 nM

Task item: Any idea what its IC50 is? The compound is Cc1cccc(N(C)C(=O)C2C(O)CCN2c2nc(C)cc(C(F)(F)F)c2C#N)c1 (configuration not stated) + Cc1cnc(CNC(=O)c2c(=O)c3ccc(N4CCCN(C)CC4)nc3n3c2sc2ccccc23)cn1
Reply: < 31.6 nM

Task item: Any idea what its IC50 is? The compound is O=C(c1cc(Cc2n[nH]c(=O)c3ccccc23)ccc1F)N1CCN(C(=O)C2CC2)CC1 + CN(C)c1ccc(Nc2c3ccc(NC(=O)CCN4CCCC4)cc3nc3cc(NC(=O)CCN4CCCC4)ccc23)cc1
Reply: > 10000 nM

Task item: Any idea what its IC50 is? The compound is CC1COCCN1c1cc(C2(S(C)(=N)=O)CC2)nc(-c2ccnc3[nH]ccc23)n1 (configuration not stated) + Cc1[nH]c2ccc(F)cc2c1-c1nc2c3cccnc3c3ncccc3c2[nH]1
Reply: < 31.6 nM

Task item: Any idea what its IC50 is? The compound is C#Cc1c(F)ccc2cc(O)cc(-c3ncc4c(N5CC6CCC(C5)N6)nc(OCC56CCCN5CC(F)C6)nc4c3F)c12 (configuration not stated) + Cc1cnc(CNC(=O)c2c(=O)c3ccc(N4CCCN(C)CC4)nc3n3c2sc2ccccc23)cn1
Reply: < 31.6 nM

Task item: Any idea what its IC50 is? The compound is COc1cccc2c1C(=O)c1c(O)c3c(c(O)c1C2=O)CC(O)(C(=O)CO)CC3OC1CC(N)C(O)C(C)O1 (configuration not stated) + Cc1cnc(CNC(=O)c2c(=O)c3ccc(N4CCCN(C)CC4)nc3n3c2sc2ccccc23)cn1
Reply: < 31.6 nM

Task item: Any idea what its IC50 is? The compound is Cn1ncnc1[C@H]1c2n[nH]c(=O)c3cc(F)cc(c23)N[C@@H]1c1ccc(F)cc1 + Cc1cnc(CNC(=O)c2c(=O)c3ccc(N4CCCN(C)CC4)nc3n3c2sc2ccccc23)cn1
Reply: < 0.999 nM

Task item: Any idea what its IC50 is? The compound is CC(C)(O)C1CCC(Nc2ccc3ncc(-c4cccc(C(F)(F)F)c4)n3n2)CC1 (configuration not stated) + Cc1cnc(CNC(=O)c2c(=O)c3ccc(N4CCCN(C)CC4)nc3n3c2sc2ccccc23)cn1
Reply: < 31.6 nM
